Data origin, for the record: patent EP0318860B1

Parameter: IC50. Scope: all listed entries.
Molecular target: rat squalene epoxidase (Rattus norvegicus)
Construct: Livers were extracted and homogenized; microsomes solubilized with 2 % Triton X-100, 105000 x g supernatant
Sequence (P52020 whole entry): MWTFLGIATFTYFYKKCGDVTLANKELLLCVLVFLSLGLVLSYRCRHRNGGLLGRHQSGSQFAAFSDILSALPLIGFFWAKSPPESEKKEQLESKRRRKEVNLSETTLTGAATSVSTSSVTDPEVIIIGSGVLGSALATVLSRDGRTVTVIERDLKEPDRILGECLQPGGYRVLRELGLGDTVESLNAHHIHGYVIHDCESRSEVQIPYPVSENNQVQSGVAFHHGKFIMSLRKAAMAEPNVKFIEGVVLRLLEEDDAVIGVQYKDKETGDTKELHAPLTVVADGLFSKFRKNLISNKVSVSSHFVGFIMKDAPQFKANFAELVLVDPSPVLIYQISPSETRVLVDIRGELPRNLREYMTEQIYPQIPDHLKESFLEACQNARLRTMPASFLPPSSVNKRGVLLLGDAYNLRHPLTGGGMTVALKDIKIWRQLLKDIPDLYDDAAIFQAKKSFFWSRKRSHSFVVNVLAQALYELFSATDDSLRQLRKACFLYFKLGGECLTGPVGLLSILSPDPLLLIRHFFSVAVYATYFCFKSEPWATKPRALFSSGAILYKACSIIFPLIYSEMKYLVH
Assay: Squalene epoxidase inhibiting activity (3H-squalene to squalene-2,3-epoxide, solubilized liver microsome fraction)
Details: 8 µM 3H-squalene, 37 °C, 30 minutes, read-out: 50 % inhibitory concentration (IC50)
Give the quantity in nM, number only.

compound	IC50 [nM]
CC(C)=Cc1cccc(COc2cccc(CN(C)C/C=C/C#CC(C)(C)C)c2)c1	3100

What IC50 value was documented for this compound, CN(C/C=C/C#CC(C)(C)C)Cc1cccc(OCc2cccc(C#N)c2)c1.Cl [Compound 64, hydrochloride] ?
510

IC50 for "COC(C)(C)C#C/C=C/CN(C)Cc1cccc(OCc2ccccc2)c1" ?
2200

Reported IC50, compound "CC(C)=CCc1cccc(COc2cccc(CN(C)C/C=C/C#CC(C)(C)C)c2)c1" : ____
9700
